- Test system: SW-620
- TEST METHOD NOTES: In vitro cytotoxic activity against colon (SW620) cell line at a concentration of 10e-5 M
- Type: functional, Homo sapiens
Threshold check on Growth: strictly below 60% is class 1; on or above 60% is class 0.

COMPOUND: CC1(C)C(=O)C=C[C@@]2(C)C1CC(=O)[C@@]1(C)C3=CC[C@@H](c4ccoc4)[C@]3(C)CCC12 (some centres undefined)
LABEL VALUE: class 1

State whether 60% exceeds Growth recorded for CCC(=O)O[C@@H]1CC2C(C)(C)C(=O)C=C[C@]2(C)C2CC[C@]3(C)C(=CC[C@H]3c3ccoc3)[C@@]21C (some centres undefined) .
class 1

State whether 60% exceeds Growth recorded for CC(=O)O[C@@H]1CC2C(C)(C)C(=O)[C@@H]3O[C@@H]3[C@]2(C)C2CC[C@]3(C)C(=CC[C@H]3c3ccoc3)[C@@]21C (some centres undefined) .
class 0

State whether 60% exceeds Growth recorded for CC(=O)O[C@@H]1CC2C(C)(C)C(=O)C=C[C@]2(C)C2CC[C@]3(C)C(=CC[C@H]3c3ccoc3)[C@@]21C (some centres undefined) .
class 1

State whether 60% exceeds Growth recorded for CCCC(=O)O[C@@H]1CC2C(C)(C)C(=O)C=C[C@]2(C)C2CC[C@]3(C)C(=CC[C@H]3c3ccoc3)[C@@]21C (some centres undefined) .
class 1

State whether 60% exceeds Growth recorded for CC1(C)C(O)C=C[C@@]2(C)C1C[C@@H](O)[C@@]1(C)C3=CC[C@@H](c4ccoc4)[C@]3(C)CCC21 (some centres undefined) .
class 0

State whether 60% exceeds Growth recorded for CC1(C)C(=O)C=C[C@@]2(C)C1C[C@@H](OC(=O)CCl)[C@@]1(C)C3=CC[C@@H](c4ccoc4)[C@]3(C)CCC21 (some centres undefined) .
class 1

Value source: ChEMBL document CHEMBL1136447
